test system: IRAK1; details: concentration: 1 μM,replicates: in singlicate; n = 1;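 also: KINOMEscan kinase panel screen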
experimental_endpoint: %Inh (%)
Enter your answer as a number in %; do not include the unit.

query: Can you look up %Inh on IRAK1 for COc1cc(Nc2nccc(N3CCC(NC(=O)c4cccc(C#N)c4)C3)n2)cc(OC)c1OC (stereo not drawn) ?
result: 58

query: Look up %Inh with IRAK1 for this compound: "Cn1cc(-c2cccc3c(N)c(C(N)=O)nnc23)cn1"
result: 31

query: Tell me reported %Inh for "OCCn1cc(-c2cnc3nnn(Cc4ccc5ncccc5c4)c3n2)cn1" , tested with IRAK1.
result: 0

query: Lab request: please report %Inh under test system IRAK1 for "O=C1NCCc2[nH]c(-c3ccncc3)cc21"
result: 98.6

query: Field: %Inh (IRAK1). Entry: COC(=O)c1cccc(NC(=O)NC2CCN(c3ccnc(Nc4cc(OC)c(OC)c(OC)c4)n3)C2)c1 (stereo not drawn)
result: 62

query: Requested read-out %Inh, target or system IRAK1, entry N#Cc1cccc(C(=O)NC2CCN(c3ccnc(Nc4ccc(F)cc4)n3)C2)c1 (stereo not drawn)
result: 17

query: Find %Inh (IRAK1) for the entry "O=C(NCC1CC1)c1ccc(-c2cc(C(=O)NC3CC3)ccc2F)cc1"
result: 0

query: Checklist item: %Inh tested on IRAK1, entry "CN1CCN(CCCNc2nccc(-c3c(-c4ccc(F)cc4)nn4cc(C(N)=O)ccc34)n2)CC1" , value?
result: 29

query: Which %Inh is reported with IRAK1 for this entry: "Cn1ccc2ncnc(Oc3ccc(NC(=O)Nc4cccc(C(F)(F)F)c4)c(F)c3)c21" ?
result: 0

----------
Kindly supply the reported %Inh values for the records listed here.
test system: TIE1; details: concentration: 1 μM,replicates: in singlicate; n = 1
Respond with the figure and its unit, in that order.

query: Request body: readout %Inh, system TIE1, query c1ccc(Oc2ccc(Nc3ccnc4ccc(-c5ccccn5)cc34)cc2)cc1 [GW407034] . Return the value.
result: 2%

query: Tell me reported %Inh for CN(c1ccc2c(c1)nc(NCc1ccc(F)cc1)n2C)c1ccnc(Nc2ccc(CS(C)(=O)=O)cc2)n1.Cl [GW813244] , tested with TIE1.
result: 92.2%

query: Request - read-out %Inh | tested on TIE1 | compound CCn1c(-c2nonc2N)nc2cncc(Br)c21 [SB-738004]
result: 0%

query: Identify the measured %Inh of CS(=O)c1ccc(-c2coc3ccc(-c4n[nH]c(=O)o4)cc23)cc1 (stereo not drawn) for TIE1.
result: 0%

query: Request - read-out %Inh | tested on TIE1 | compound COc1cc(Nc2nccc(N3CCC(NC(=O)c4cccc(C#N)c4)C3)n2)cc(OC)c1OC (stereo not drawn) [GSK1379751]
result: 32%

query: // lookup %Inh | system=TIE1 | key= O=c1[nH]cc(-c2ccc(O)cc2)c2sc(-c3ccncc3)cc12 [GSK1033723]
result: 0%

query: For TIE1, provide %Inh of NC(=O)Nc1sc(-c2ccc(F)cc2)cc1C(N)=O [GW789449] please.
result: 0%

query: Query %Inh on TIE1 for O=C(Nc1n[nH]c2cc(-c3ccco3)ccc12)C1CC1 [SB-737447]
result: 17%

query: State its %Inh on TIE1: COc1ccc(Nc2nccc(N3CCC(NC(=O)c4cccc(C#N)c4)C3)n2)cc1 (stereo not drawn) [GSK1379730]
result: 16%

----------
tested on: CAMKK1; conditions: concentration: 1 μM,replicates: in singlicate; n = 1
// classify: if (%Inh < 6%) criterion met else criterion not met

query: Record "Cn1ccc2ncnc(Oc3ccc(NC(=O)Nc4cccc(C(F)(F)F)c4)c(F)c3)c21" : is its %Inh strictly below 6%?
result: criterion not met

query: Here's an entry: "C[C@@H]1CNc2c(sc3ccc4nc(-c5ccncc5)ccc4c23)C(=O)N1" . Is its %Inh below 6%?
result: criterion not met

query: Is 6% strictly greater than the compound's reported %Inh? compound: "O=C1NCCc2[nH]c(-c3ccncc3)cc21"
result: criterion met

query: Quick check: does CS(=O)c1ccc(-c2coc3ccc(-c4n[nH]c(=O)o4)cc23)cc1 (stereo not drawn) have %Inh under 6%?
result: criterion not met

query: Confirm or reject: %Inh of "CC(C)c1nc(-c2cccc(NS(=O)(=O)c3ccccc3)c2)c(-c2ccnc(Nc3ccc4c(c3)CN(C)CC4)n2)s1" lies strictly below 6%
result: criterion not met

query: Threshold test, %Inh < 6%: "Cc1ccn2nc(-c3ccc(F)cc3)c(-c3ccncc3)c2c1.Cl"
result: criterion met

query: Please determine if "Cl.c1ccc(Oc2ccc(Nc3ccnc4cc(-c5ccc(CN6CCNCC6)o5)ccc34)cc2)nc1" is below 6% in terms of %Inh.
result: criterion met

query: Identify whether the compound "Nc1nccc(-c2ccc3c(N)n[nH]c3c2)n1" records %Inh below 6%.
result: criterion met

query: Here's an entry: "Cc1ccc(C(=O)Nc2ccc(Oc3ccc4nc(NC(=O)C5CC5)cn4c3)c(F)c2)c(=O)n1-c1ccccc1" . Is its %Inh below 6%?
result: criterion not met

query: Does "Cn1ccc2ncnc(Oc3ccc(NC(=O)Nc4ccnc(C(F)(F)F)c4)c(Cl)c3)c21" have %Inh strictly under 6%?
result: criterion not met

query: Consider the compound "CN1CCN(CCNc2nc3cc(Oc4ccc(NC(=O)Nc5cc(C(F)(F)F)ccc5F)cc4)ccc3[nH]2)CC1.Cl.Cl" . Is its %Inh strictly less than 6%?
result: criterion met

query: Please let me know if CCNCC(Cc1ccccc1)NC(=O)c1cc(Br)c(-c2ccnc3[nH]ccc23)s1.Cl.Cl (stereo not drawn) shows %Inh below 6%.
result: criterion not met

query: is_below(%Inh, 6%) for "O=C(Nc1cccc(C(F)(F)F)c1)c1cccc(Oc2ccc3nccn3n2)c1" ?
result: criterion not met

query: Quick check: does "O=C(Nc1cccc(Oc2ccc3nccn3n2)c1)Nc1cccc(C(F)(F)F)c1" have %Inh under 6%?
result: criterion met

query: In plain terms, does "c1ccc(Oc2ccc(Nc3ccnc4ccc(-c5ccccn5)cc34)cc2)cc1" come in under 6% for %Inh?
result: criterion met

query: Dear colleague, could you confirm whether %Inh of "COC(=O)c1cccc(NC(=O)NC2CCN(c3ccnc(NCc4ccc(F)cc4)n3)CC2)c1" falls below 6%? Thanks.
result: criterion met

query: Determine if "CS(=O)(=O)c1cccc(CNc2nc(Nc3ccc4c(c3)[C@@H]3C[C@@H]4CNC3=O)ncc2C(F)(F)F)c1" shows %Inh strictly lower than 6%.
result: criterion not met

query: Quick check: %Inh of "CC(C)S(=O)(=O)N1CCN(Cc2ccc3c(c2)nc(NC(=O)c2ccsc2)n3C[C@H](O)c2ccccc2)CC1" under 6%?
result: criterion not met

query: Threshold test, %Inh < 6%: "C[C@@H](Oc1cc(-n2cnc3cc(-c4cnn(C)c4)ccc32)sc1C(N)=O)c1ccccc1Cl"
result: criterion not met

query: Find out if reported %Inh for "CN1CCN(CCCNc2nccc(-c3c(-c4ccc(F)cc4)nn4cc(C(N)=O)ccc34)n2)CC1" is less than 6%
result: criterion not met

query: Could you please tell me whether %Inh recorded for "CCn1c(-c2nonc2N)nc2cncc(Br)c21" is less than 6%?
result: criterion not met

query: In plain terms, does N#Cc1cccc(C(=O)NC2CCN(c3ccnc(Nc4ccc(F)cc4)n3)C2)c1 (stereo not drawn) come in under 6% for %Inh?
result: criterion met

query: Record "COc1cccc(OC)c1C(=O)Nc1cccc(-c2nn3ccccc3c2-c2ccnc(Nc3cccc(F)c3)n2)c1" : is its %Inh strictly below 6%?
result: criterion met

query: Does the reported %Inh of "CNC(=O)c1ccccc1Nc1nc(Nc2cccc(CS(C)(=O)=O)c2)ncc1C.O=CO" stay below 6%?
result: criterion not met

query: Threshold test, %Inh < 6%: "CN(c1cccc(CNc2nc(Nc3ccc4c(c3)CC(=O)N4)ncc2C(F)(F)F)c1)S(C)(=O)=O"
result: criterion not met

query: Answer whether the compound "COC(=O)Nc1nc2cc(Oc3ccc(NC(=O)Nc4cc(C(F)(F)F)ccc4Cl)cc3)ccc2[nH]1.Cl" has %Inh strictly less than 6%
result: criterion met

query: Does the reported %Inh of "COc1cccc(C2=C(Nc3cccc(Cl)c3)C(=O)NC2=O)c1" stay below 6%?
result: criterion met

query: Answer whether the compound "Cl.Nc1n[nH]c2cc(-c3ccccn3)ccc12" has %Inh strictly less than 6%
result: criterion met

query: Take the compound COc1cc(Nc2nccc(N3CCC(NC(=O)c4cccc(C#N)c4)C3)n2)cc(OC)c1OC (stereo not drawn) and say whether its %Inh is less than 6%.
result: criterion met

query: Please check: %Inh for "Cn1cc(-c2cccc3c(N)c(C(N)=O)nnc23)cn1" , strictly under 6% or not?
result: criterion met

query: hey, is %Inh for "CCOC(=O)N1CCC(n2cnc(-c3ccc(F)cc3)c2-c2ccnc(N)n2)CC1" lower than 6% or not?
result: criterion met

query: Hello, I'm reviewing records and need to know if %Inh of "Cn1ccc2ncnc(Oc3ccc(NC(=O)Nc4cncc(C(F)(F)F)c4)c(Cl)c3)c21" is below 6%. Could you check?
result: criterion met

query: Just wondering, is %Inh of "CCCC(=O)Nc1n[nH]c2ncccc12" below 6%?
result: criterion met

query: Confirm or reject: %Inh of "COc1cc2ncn(-c3cc(OCC4CCCCC4)c(C(N)=O)s3)c2cc1OC" lies strictly below 6%
result: criterion not met

query: Is it true that %Inh reported for "OCCn1cc(-c2cnc3nnn(Cc4ccc5ncccc5c4)c3n2)cn1" is less than 6%?
result: criterion met

Data origin: paper PMC5540273
